Please respond with reported growth at 10 µM for every item in the list.
tested on: UACC-257; experiment: Cytotoxicity against human UACC257 cells assessed as cell growth at 10 uM after 48 hrs by SRB assay relative to control; type: functional; conditions: UACC-257, 48 h, read-out: Activity
One number for each entry, in %.

Please review the entries below; each comes with its answer.
record smiles: O=C1c2ccccc2C(=O)c2c1cc(Sc1ccccc1Br)c1nsnc21
measurement unit: %
assay result: 4.75
//
record smiles: O=C1c2ccccc2C(=O)c2c1cc(Sc1ccccc1)c1nsnc21
measurement unit: %
assay result: 92.8
//
record smiles: O=C1c2ccccc2C(=O)c2c1ccc1nsnc21
measurement unit: %
assay result: -83.1
//
record smiles: Cc1ccccc1Sc1cc2c(c3nsnc13)C(=O)c1ccccc1C2=O
measurement unit: %
assay result: 87.3
//
record smiles: COc1ccc(Sc2cc3c(c4nsnc24)C(=O)c2ccccc2C3=O)cc1
measurement unit: %
assay result: 118
//
record smiles: CCOc1cccc(Sc2cc3c(c4nsnc24)C(=O)c2ccccc2C3=O)c1
measurement unit: %
assay result: 126
//
record smiles: Cc1cccc(C)c1Sc1cc2c(c3nsnc13)C(=O)c1ccccc1C2=O
measurement unit: %
assay result: 86.6

input: // fetch growth at 10 µM given entry O=C1c2ccccc2C(=O)c2c1cc(Sc1cccc(Cl)c1)c1nsnc21
output: -84.6

* * *

test system: HOP-62; assay: Cytotoxicity against human HOP62 cells after 48 hrs by SRB assay; assay type: functional; settings: HOP-62, 48 h
// NB: equality with 2000 nM counts as FALSE; only GI50 strictly below is TRUE

Illustrative cases are given below, each with its answer.
record smiles: O=C1c2ccccc2C(=O)c2c1cc(Sc1cccc(Cl)c1)c1nsnc21
class: TRUE
//
record smiles: O=C1c2ccccc2C(=O)c2c1cc(Sc1ccccc1Br)c1nsnc21
class: FALSE
//
record smiles: O=C1c2ccccc2C(=O)c2c1cc(SCc1ccccc1)c1nsnc21
class: FALSE

input: GI50 under 2000 nM? Item: O=C1c2ccccc2C(=O)c2c1cc(Sc1ccc(F)cc1F)c1nsnc21
output: TRUE

input: GI50 under 2000 nM? Item: CC(C)Sc1cc2c(c3nsnc13)C(=O)c1ccccc1C2=O
output: FALSE

* * *

Please respond with reported TGI for every item in the list.
tested on: RXF 393; assay: Cytotoxicity against human RXF393 cells after 48 hrs by SRB assay; type: functional; settings: RXF 393, 48 h
Answers are plain numbers, in µM.

record smiles: O=C1c2ccccc2C(=O)c2c1cc(Sc1cccc(Cl)c1)c1nsnc21
study system: RXF 393
measurement unit: µM
TGI: 4.7

record smiles: O=C1c2ccccc2C(=O)c2c1cc(Sc1ccc(F)cc1F)c1nsnc21
study system: RXF 393
measurement unit: µM
TGI: 3.69

record smiles: O=C1c2ccccc2C(=O)c2c1cc(SCc1ccccc1)c1nsnc21
study system: RXF 393
measurement unit: µM
TGI: 14

record smiles: CC(C)Sc1cc2c(c3nsnc13)C(=O)c1ccccc1C2=O
study system: RXF 393
measurement unit: µM
TGI: 4.83

Moving on to the next compound.
input: // fetch TGI given entry O=C1c2ccccc2C(=O)c2c1cc(Sc1ccccc1Br)c1nsnc21
output: 19.6

* * *

system: U-251; experiment: Cytotoxicity against human U251 cells assessed as cell growth at 10 uM after 48 hrs by SRB assay relative to control; type: functional; conditions: U-251, 48 h, read-out: Activity
// NB: equality with 90% counts as condition not met; only growth at 10 µM strictly below is condition met

input: growth at 10 µM under 90%? Item: COc1cccc(Sc2cc3c(c4nsnc24)C(=O)c2ccccc2C3=O)c1
output: condition not met
